Target: Concanavalin-A (Canavalia ensiformis) (UniProt P02866)
Sequence (P02866 whole entry, looked up): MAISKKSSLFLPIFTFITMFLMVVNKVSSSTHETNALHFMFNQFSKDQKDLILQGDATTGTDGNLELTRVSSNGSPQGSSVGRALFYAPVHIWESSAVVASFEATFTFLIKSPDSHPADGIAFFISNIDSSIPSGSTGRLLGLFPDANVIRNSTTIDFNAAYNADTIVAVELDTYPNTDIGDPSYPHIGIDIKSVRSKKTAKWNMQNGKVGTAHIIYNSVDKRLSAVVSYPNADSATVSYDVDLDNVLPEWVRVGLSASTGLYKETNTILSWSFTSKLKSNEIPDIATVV
Assay: ConA small-molecule binders, primary screen, artefact control for SMM control protein annotation, biochemical, small-molecule microarray, Alexa647 label, 635 nm (AID 1127);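 also: z combines 667 nm emission intensity with signal-to-noise across three replicate slides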
Conditions: ConA-A647 binding fluorescence, higher = more signal
measured-parameter: composite z-score
Answer with a bare number; do not write a unit.

Some compounds with recorded composite z-score:
CCOC(=O)C[C@H]1[C@H](OC(=O)c2cc3ccccc3oc2=O)[C@@H](NC(=O)C2CCCCC2)c2cc(OCCCO)ccc2N1C(=O)c1ccccc1 :: 0.282
C=C(CCCC)/C(=C/C[C@@H](OC(C)=O)c1ccccc1OCCO)c1cnc2ccccc2c1 :: 0.535
COc1cc2c(cc1O)C(C1CC1)N(Cc1cc3c(cc1Br)OCO3)CC2 (configuration not stated) :: -0.207
COCCOC(=O)N1C(=O)[C@@]2(c3cc(C#CCNC(N)=O)ccc31)[C@H](C(=O)NC[C@H](O)c1ccccc1)[C@H]1C(=O)O[C@H](c3ccccc3)[C@H](c3ccccc3)N1[C@@H]2c1ccccc1OCCO :: 1.01
O=C(NCc1ccccc1)[C@@]1(Cc2ccccc2)N=C(c2ccc(OCCCO)cc2)O[C@H]1c1ccccc1 :: 1.15
C=CCNC(=O)[C@H]1[C@@H]2C(=O)O[C@@H](c3ccccc3)[C@@H](c3ccccc3)N2[C@@H](c2ccc(OCCO)cc2)[C@]12C(=O)N(C(=O)OCCOC)c1ccccc12 :: 1.14
COCCOC(=O)N1C(=O)[C@@]2(c3ccccc31)[C@H](c1ccc(O)cc1)N1[C@H](c3ccccc3)[C@H](c3ccccc3)OC(=O)[C@H]1[C@@H]2C(=O)NC[C@H](O)c1ccccc1 :: 0.291
CC1CC/C=C\[C@H]2OC34C=CCN(Cn5nnc6ccccc65)C(=O)[C@H]3N(C(CO)C(C)C)C(=O)[C@@H]4C2C(=O)O1 (some centres not stated) :: -0.43

// map CC(C)(C)OC(=O)CC[C@]1(C(=O)O)N=C(c2ccc(OCCCO)cc2)O[C@H]1c1ccccc1N=[N+]=[N-] to recorded composite z-score (system: Concanavalin-A (Canavalia ensiformis) (UniProt P02866))
0.663
